All figures here come from paper PMC3713010.

target_desc: Pax6 DNA-binding domain (BD-Pax6) (Mus musculus (B6), UniProt P63015 190-289)
Sequence (P63015 190-289): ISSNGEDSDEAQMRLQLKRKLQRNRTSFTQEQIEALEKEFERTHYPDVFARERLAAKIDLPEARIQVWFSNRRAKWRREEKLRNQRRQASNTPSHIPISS
assay_comment: EMSA; 10% glycerol, 20 mM HEPES pH 7.8, 45 mM KCl, 10 mM NaCl, 1 mM EDTA, 1 mM DTT, 0.2 ug/uL BSA, 0.1% NP-40, 50 ng poly-dIdC; 20 ng each GST protein; room temperature 30 min (heterodimers 4 C); 6% PAGE 0.25x TBE
reported_conditions: protein: recombinant; tags: GST (N-terminal, pGEX-6P-1); label: 32P-dCTP fill-in of the 5' (dG)5 overhangs of both strands (Methods; control probes are given with GGG)
metric: binding result

{"columns": ["binder", "metric", "measurement"],
 "data": [
  ["60 (dsDNA) DNA 1: GGGGGAATTTAATTTTGTCTCTACCTTTCACGCTTCTCCTTTGCATTTTCCCCCC DNA 2: GGGGGGAAAATGCAAAGGAGAAGCGTGAAAGGTAGAGACAAAATTAAATTCCCCC", "binding result", "binds"],
  ["59 (dsDNA) DNA 1: GGGGGAGCTTTTAACAATTTAATTTTGTCTCTACCTCCCCC DNA 2: GGGGGAGGTAGAGACAAAATTAAATTGTTAAAAGCTCCCCC", "binding result", "binds"],
  ["121 (dsDNA) DNA 1: GGGGGGTGCTCAATTTGTGTTAGCTATTACTAGCAAGTCATTAACTCACCCCCC DNA 2: GGGGGGTGAGTTAATGACTTGCTAGTAATAGCTAACACAAATTGAGCACCCCCC", "binding result", "binds"]
]}
